- System: KAI3 (IL-2 2.5 ng/mL);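 further: normalised to DMSO-only wells as negative and benzethonium chloride as positive control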
- procedure summary: percent inhibition of viability; higher = more inhibition
- test context: 72 h; 0.1 nM
readout label: percent inhibition of viability (%)
Give the value, in units of %, as a plain number.

// solved cases for percent inhibition of viability follow
CCS(=O)(=O)c1cccc(-c2cc(C(=O)NC3CCN(C)CC3)c(C)c3[nH]c4ncc(C)cc4c23)c1 [TAK-901] (max concentration tested 1000 nM)	1.13
CN(C)C/C=C/C(=O)Nc1cc2c(Nc3ccc(F)c(Cl)c3)ncnc2cc1O[C@H]1CCOC1 [Afatinib] (max concentration tested 1000 nM)	-6.04
O=C(c1ccc(F)c(F)c1Nc1ccc(I)cc1F)N1CC(O)([C@@H]2CCCCN2)C1 [Cobimetinib] (max concentration tested 1000 nM)	9.38
FC(F)(F)c1ccc(/C=C/c2nc(COc3ccc(CCCCn4ccnn4)cc3)co2)cc1 [Mubritinib] (max concentration tested 1000 nM)	3.33

Look at this compound and give its reported percent inhibition of viability. CS(=O)(=O)CCNCc1ccc(-c2ccc3ncnc(Nc4ccc(OCc5cccc(F)c5)c(Cl)c4)c3c2)o1 [Lapatinib] (max concentration tested 1000 nM) -4.84
